Consider the following binders; for each one, report its ADCC Cytotoxicity (%), Donor 1, 10 nM.
molecular target: human ROR1 (hROR1) on cells (human, UniProt Q01973 30-937); assay: cell-based or functional assay
Sequence (Q01973 30-937): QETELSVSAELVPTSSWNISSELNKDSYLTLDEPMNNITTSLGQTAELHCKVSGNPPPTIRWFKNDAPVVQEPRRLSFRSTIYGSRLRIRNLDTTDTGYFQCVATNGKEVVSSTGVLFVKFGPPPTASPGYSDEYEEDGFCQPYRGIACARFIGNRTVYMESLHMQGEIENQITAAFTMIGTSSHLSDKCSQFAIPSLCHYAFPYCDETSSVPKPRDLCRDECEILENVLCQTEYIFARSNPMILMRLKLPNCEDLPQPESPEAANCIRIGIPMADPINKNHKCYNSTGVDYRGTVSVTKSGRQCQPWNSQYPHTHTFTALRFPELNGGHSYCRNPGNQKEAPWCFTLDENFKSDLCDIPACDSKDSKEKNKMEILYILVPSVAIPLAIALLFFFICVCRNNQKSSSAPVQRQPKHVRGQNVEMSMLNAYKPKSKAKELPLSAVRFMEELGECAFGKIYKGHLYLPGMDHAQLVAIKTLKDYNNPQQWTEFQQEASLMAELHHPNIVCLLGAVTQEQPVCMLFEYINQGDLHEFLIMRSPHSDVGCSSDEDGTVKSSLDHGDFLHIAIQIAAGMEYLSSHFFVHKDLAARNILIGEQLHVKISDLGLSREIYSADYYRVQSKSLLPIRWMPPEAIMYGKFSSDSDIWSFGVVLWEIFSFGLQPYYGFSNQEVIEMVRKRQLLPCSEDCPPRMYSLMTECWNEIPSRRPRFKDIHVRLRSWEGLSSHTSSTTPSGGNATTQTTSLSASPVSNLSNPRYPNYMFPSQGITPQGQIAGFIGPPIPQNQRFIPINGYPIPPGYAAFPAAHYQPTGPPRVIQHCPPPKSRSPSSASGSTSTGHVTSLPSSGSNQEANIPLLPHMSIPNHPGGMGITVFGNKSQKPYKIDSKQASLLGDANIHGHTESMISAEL
Express your answer in %, writing the number without its unit.

Which measured ADCC Cytotoxicity (%), Donor 1, 10 nM value corresponds to PR001359 (antibody, human IgG1, kappa, V domains shown, fully human IgG1, kappa) VH: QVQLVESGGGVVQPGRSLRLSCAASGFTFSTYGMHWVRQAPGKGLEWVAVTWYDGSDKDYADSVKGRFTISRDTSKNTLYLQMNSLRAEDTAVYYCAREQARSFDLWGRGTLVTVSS VL: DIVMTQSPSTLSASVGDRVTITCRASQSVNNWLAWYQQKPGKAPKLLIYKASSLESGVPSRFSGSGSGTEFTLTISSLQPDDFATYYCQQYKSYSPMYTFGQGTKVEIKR ?
39.5

Also PR001354 (antibody, human IgG1, kappa, V domains shown, fully human IgG1, kappa; also called anti-ROR1 1015M2-C9 hIgG1; PR001354(WT)) VH: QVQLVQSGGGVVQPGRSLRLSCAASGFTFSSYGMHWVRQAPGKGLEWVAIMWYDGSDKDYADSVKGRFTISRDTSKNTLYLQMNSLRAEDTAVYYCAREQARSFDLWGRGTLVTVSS VL: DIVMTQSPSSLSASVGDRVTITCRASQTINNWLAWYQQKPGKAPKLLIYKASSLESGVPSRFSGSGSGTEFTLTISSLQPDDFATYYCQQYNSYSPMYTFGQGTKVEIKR ?
34.7

Also PR001355 (antibody, human IgG1, kappa, V domains shown, fully human IgG1, kappa) VH: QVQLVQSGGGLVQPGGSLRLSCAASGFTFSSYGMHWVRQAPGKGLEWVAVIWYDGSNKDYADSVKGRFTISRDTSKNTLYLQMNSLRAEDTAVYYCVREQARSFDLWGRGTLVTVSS VL: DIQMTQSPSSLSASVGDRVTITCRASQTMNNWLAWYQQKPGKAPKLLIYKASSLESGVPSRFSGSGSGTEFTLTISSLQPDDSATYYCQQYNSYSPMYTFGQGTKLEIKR ?
29

Also PR001362 (antibody, V domains shown, fully human IgG1, kappa) VH: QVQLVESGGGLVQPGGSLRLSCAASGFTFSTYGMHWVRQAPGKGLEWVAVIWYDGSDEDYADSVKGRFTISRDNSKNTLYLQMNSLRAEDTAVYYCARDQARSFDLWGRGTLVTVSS VL: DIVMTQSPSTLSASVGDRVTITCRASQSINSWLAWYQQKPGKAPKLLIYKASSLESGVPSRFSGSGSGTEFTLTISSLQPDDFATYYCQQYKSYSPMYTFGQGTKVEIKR ?
26.9

Also Positive control antibody (PR000374) (antibody, human IgG1, kappa, V domains shown) VH: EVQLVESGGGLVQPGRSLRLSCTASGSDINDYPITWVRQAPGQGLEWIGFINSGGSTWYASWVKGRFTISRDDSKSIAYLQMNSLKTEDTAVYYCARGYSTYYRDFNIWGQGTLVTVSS VL: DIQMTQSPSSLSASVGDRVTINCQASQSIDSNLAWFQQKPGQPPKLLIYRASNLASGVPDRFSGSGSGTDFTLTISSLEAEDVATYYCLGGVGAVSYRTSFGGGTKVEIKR ?
25.4

Also PR001357 (antibody, human IgG1, kappa, V domains shown, fully human IgG1, kappa) VH: QVQLVQSGGGVVQPGRSLRLSCAASGFTFSSYGMHWVRQAPGKGLEWVAVIWYDGSNKDYADSVKGRFTISRDTSKNTLYLQMNSLRAEDTAVYYCAREQARSFDLWGRGTLVTVSS VL: DIQLTQSPYSLSASVGDRVTITCRASQTINNWLAWYQQKPGKAPKLLIYKASSLESGVPSRFSGSGSGTEFTLTISSLQPDDFATYYCQQYKLYSPMYTFGQGTKVEIKR ?
32.1

src = patent US20240010721A1
